These entries and their values trace back to patent US10947270B2.

Test system: MCF-7 cells
Test: MTT cytotoxicity assay of yCD series protein combined with 5-FC
Format: cell-based, human
Settings: 5-FU alone
RESULT_TYPE: IC50

**Query** I would be grateful if you could share the reported IC50 for O=c1[nH]cc(F)c(=O)[nH]1 [5-FU, 5-fluorouracil] .
**Result** 2200 nM
